Every entry's value here was drawn from the FLAb antibody collection (doi:10.1101/2023.12.08.570889).

- TESTED SYSTEM: C5, P01031
- MEASUREMENT DESCRIPTION: Kd (SPR)
OBSERVATION TYPE: pKd
Scale explanation: pKd corresponds to minus log10 of a concentration expressed in moles per litre.

Known pKd results, listed for orientation:
unnamed (protein) chain 1: QVQLVQSGAEVKKPGASVKVSCKASGYIFSNYWIQWVRQAPGQGLEWMGEILPGSGSTEYTENFKDRVTMTRDTSTSTVYMELSSLRSEDTAVYYCARHYYGDTPDIYFDYWGQGTLVTVSS chain 2: DIQMTQSPSSLSASVGDRVTITCGASENIYGALNWYQQKPGKAPKLLIYGATNLADGVPSRFSGSGSGTDFTLTISSLQPEDFATYYCQNVLNTPLTFGQGTKVEIK; 5.77
unnamed (protein) chain 1: QVQLVQSGAEVKKPGASVKVSCKASGYIFSNYWIQWVRQAPGQGLEWMGEILPGSGSTEYTENFKDRVTMTRDTSTSTVYMELSSLRSEDTAVYYCARFRYGDTPIIYFDYWGQGTLVTVSS chain 2: DIQMTQSPSSLSASVGDRVTITCGASENIYGALNWYQQKPGKAPKLLIYGATNLADGVPSRFSGSGSGTDFTLTISSLQPEDFATYYCQNVLNTPLTFGQGTKVEIK; 6.55
unnamed (protein) chain 1: QVQLVQSGAEVKKPGASVKVSCKASGYTFTSYWIQWVRQAPGQGLEWMGEIHPGSGETEYTENFKDRVTMTRDTSTSTVYMELSSLRSEDTAVYYCARYRYGDTPIIYFDYWGQGTLVTVSS chain 2: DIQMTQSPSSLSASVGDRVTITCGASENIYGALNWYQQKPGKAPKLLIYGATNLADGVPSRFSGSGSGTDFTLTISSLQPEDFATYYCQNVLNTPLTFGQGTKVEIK; 6.60
unnamed (protein) chain 1: QVQLVQSGAEVKKPGASVKVSCKASGYIFSNYWIQWVRQAPGQGLEWMGEILPGSGSTEYTENFKDRVTMTRDTSTSTVYMELSSLRSEDTAVYYCARYRWGDTPYIYFDYWGQGTLVTVSS chain 2: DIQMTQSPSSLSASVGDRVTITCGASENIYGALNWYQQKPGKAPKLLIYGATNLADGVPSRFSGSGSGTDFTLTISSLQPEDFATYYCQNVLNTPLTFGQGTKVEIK; 6.07

Kindly review the next binder as well.
QUERY: Which pKd is reported for this binder? unnamed (protein) chain 1: QVQLVQSGAEVKKPGASVKVSCKASGYTFTSYWIQWVRQAPGQGLEWMGEIKPGSGYTEYTENFKDRVTMTRDTSTSTVYMELSSLRSEDTAVYYCARHEYGDTPIIYFDYWGQGTLVTVSS chain 2: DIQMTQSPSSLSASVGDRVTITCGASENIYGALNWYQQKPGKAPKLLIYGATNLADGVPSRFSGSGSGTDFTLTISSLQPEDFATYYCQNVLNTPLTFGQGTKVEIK
RESULT: 6.53
